molecular target: M. tuberculosis EthR (Mycobacterium tuberculosis); experiment: Surface plasmon resonance assay of EthR binding to ethA promoter DNA; conditions: SPR IC50 (µM), inhibition of EthR binding to ethA promoter DNA

{"columns": ["MOLECULE SMILES", "IC50"],
 "data": [
  ["Nc1ccccc1Nc1ccc2c(c1)OCO2", "> 100 µM"]
]}

----------
Listing of entries alongside the reported inhibition at 100 µM.
target: M. tuberculosis EthR (Mycobacterium tuberculosis, UniProt P9WMC1); experiment: Surface plasmon resonance assay of EthR binding to ethA promoter DNA
Sequence (P9WMC1 whole entry, looked up): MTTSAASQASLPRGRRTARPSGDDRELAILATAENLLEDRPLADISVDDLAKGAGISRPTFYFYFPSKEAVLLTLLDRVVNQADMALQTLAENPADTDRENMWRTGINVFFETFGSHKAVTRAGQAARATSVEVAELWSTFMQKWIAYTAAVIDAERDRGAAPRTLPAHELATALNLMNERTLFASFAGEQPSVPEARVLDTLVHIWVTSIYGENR

{"columns": ["MOLECULE SMILES", "inhibition at 100 µM"],
 "data": [
  ["CCc1ccc(Nc2nnc(SCc3cc(C)on3)s2)cc1", "92.8%"],
  ["O=C(NC1=NCCS1)c1sc2cc(F)ccc2c1Cl", "100%"],
  ["Nc1ccccc1Nc1ccc2c(c1)OCO2", "67%"],
  ["Fc1ccc2nc(Nc3nc(-c4ccccn4)cs3)sc2c1", "97%"],
  ["O=C(C1CCN(c2nnc(-n3cccc3)s2)CC1)N1CCC(Cc2ccccc2)CC1", "100%"],
  ["O=C(COc1cccc(F)c1)Nc1nc(-c2ccccn2)cs1", "93%"],
  ["CSc1ccc(C(=O)Nc2nc(-c3ccccn3)cs2)cc1", "74%"],
  ["O=C(Cc1ccc(F)cc1)Nc1nc(-c2ccccn2)cs1", "100%"],
  ["Clc1ccc(Nc2nc(-c3ccccn3)cs2)nc1", "99%"]
]}

----------
target: M. tuberculosis EthR (Mycobacterium tuberculosis, UniProt P9WMC1); experiment: Surface plasmon resonance assay of EthR binding to ethA promoter DNA; conditions: SPR dose response 0.78-100 μM, triplicate; table head prints no unit, μM; read-out: IC50
METRIC: IC50 (µM)

{"columns": ["MOLECULE SMILES", "METRIC", "UNIT TEXT", "MEASURED NUMBER"],
 "data": [
  ["O=C(COc1cccc(F)c1)Nc1nc(-c2ccccn2)cs1", "IC50", "µM", 50]
]}

----------
biological target: M. tuberculosis EthR (Mycobacterium tuberculosis); test: Surface plasmon resonance assay of EthR binding to ethA promoter DNA; details: IC50, SPR dose response 0.78-100 μM, triplicate; table head prints no unit, μM
Overview of recorded IC50 for various molecules

{"columns": ["MOLECULE SMILES", "UNIT TEXT", "IC50"],
 "data": [
  ["Fc1ccc2nc(Nc3nc(-c4ccccn4)cs3)sc2c1", "µM", 22],
  ["O=C(C1CCN(c2nnc(-n3cccc3)s2)CC1)N1CCC(Cc2ccccc2)CC1", "µM", 3.9],
  ["O=C(Cc1ccc(F)cc1)Nc1nc(-c2ccccn2)cs1", "µM", 9.9]
]}
